These measurements were taken from paper doi:10.1101/2024.08.12.607668.

- experimental_target: T1, Truncated AbrB, N-terminal DNA-binding domain (AbrBN) from B. subtilis 168, His6-tagged (B. subtilis 168)
- T1 sequence (P08874 whole entry, looked up): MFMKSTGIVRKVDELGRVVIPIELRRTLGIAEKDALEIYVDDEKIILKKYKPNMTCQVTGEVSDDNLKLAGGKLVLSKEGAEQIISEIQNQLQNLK
- protocol_description: SPR
reported_metric: Kd
Write the numeric value and append its unit.

// fetch Kd given entry AbrB antirepressor AbbA from B. subtilis 168, His6-tagged (natural protein, UniProt O31697 1-65, looked up) MRMSLIGERFTEEEQKLLLNILINHEYAIELLSSEINDIETGTKNVDGTTYKKLVTLYDRFRFEN
3.7 µM
